- System: CEM cells HIV-1 protection, formazan growth assay
- Protocol description: NCI AIDS Antiviral Assay
Readout kind: EC50

compound=COc1ccc(/C=C(\C#N)c2ccccn2)cc1OC tgt="CEM cells HIV-1 protection, formazan growth assay" readout_kind=EC50 result="> 200 µM"
compound=NP(N)(=O)NC(=O)c1ccc(F)cc1 tgt="CEM cells HIV-1 protection, formazan growth assay" readout_kind=EC50 result="> 200 µM"
compound=Nc1cc(=O)[nH][nH]1 tgt="CEM cells HIV-1 protection, formazan growth assay" readout_kind=EC50 result="> 200 µM"
compound="CC(NC(C#N)CC12CC3CC(CC(C3)C1)C2)c1ccccc1 (stereo unspecified)" tgt="CEM cells HIV-1 protection, formazan growth assay" readout_kind=EC50 result="> 200 µM"
compound=Cc1ccccc1NCN1C(=O)S/C(=C2\C(=O)N(C)c3ccc(Br)cc32)C1=O tgt="CEM cells HIV-1 protection, formazan growth assay" readout_kind=EC50 result="> 200 µM"
compound="CC12CC(C#N)(C#N)C(C#N)(CO1)C(=N)O2 (stereo unspecified)" tgt="CEM cells HIV-1 protection, formazan growth assay" readout_kind=EC50 result="> 200 µM"
compound=CCOC(=O)c1nc2cc(F)c(F)cc2nc1NCc1cc(OC)c(OC)c(OC)c1 tgt="CEM cells HIV-1 protection, formazan growth assay" readout_kind=EC50 result="> 100 µM"
compound=O=c1n(/N=C/c2ccccc2)c(=O)n2n1C1C=CC2CC1 tgt="CEM cells HIV-1 protection, formazan growth assay" readout_kind=EC50 result="> 200 µM"
compound="Cc1ccc(S(=O)(=O)n2c3c(c4ccccc42)CCN2C(=O)C(S(=O)(=O)c4ccccc4)=CCC32)cc1 (stereo unspecified)" tgt="CEM cells HIV-1 protection, formazan growth assay" readout_kind=EC50 result="> 200 µM"
compound=CC(=O)Nc1c(Nc2ccc3c(=O)[nH]ccc3c2C)cc[nH]c1=O tgt="CEM cells HIV-1 protection, formazan growth assay" readout_kind=EC50 result="> 398 µM"
compound=COC(=O)/C=C\C(C#N)(C#N)N=Cc1cccc(OC)c1 tgt="CEM cells HIV-1 protection, formazan growth assay" readout_kind=EC50 result="> 20 µM"
